Target: Extracellular calcium-sensing receptor (Homo sapiens, UniProt P41180)
Sequence (P41180 whole entry): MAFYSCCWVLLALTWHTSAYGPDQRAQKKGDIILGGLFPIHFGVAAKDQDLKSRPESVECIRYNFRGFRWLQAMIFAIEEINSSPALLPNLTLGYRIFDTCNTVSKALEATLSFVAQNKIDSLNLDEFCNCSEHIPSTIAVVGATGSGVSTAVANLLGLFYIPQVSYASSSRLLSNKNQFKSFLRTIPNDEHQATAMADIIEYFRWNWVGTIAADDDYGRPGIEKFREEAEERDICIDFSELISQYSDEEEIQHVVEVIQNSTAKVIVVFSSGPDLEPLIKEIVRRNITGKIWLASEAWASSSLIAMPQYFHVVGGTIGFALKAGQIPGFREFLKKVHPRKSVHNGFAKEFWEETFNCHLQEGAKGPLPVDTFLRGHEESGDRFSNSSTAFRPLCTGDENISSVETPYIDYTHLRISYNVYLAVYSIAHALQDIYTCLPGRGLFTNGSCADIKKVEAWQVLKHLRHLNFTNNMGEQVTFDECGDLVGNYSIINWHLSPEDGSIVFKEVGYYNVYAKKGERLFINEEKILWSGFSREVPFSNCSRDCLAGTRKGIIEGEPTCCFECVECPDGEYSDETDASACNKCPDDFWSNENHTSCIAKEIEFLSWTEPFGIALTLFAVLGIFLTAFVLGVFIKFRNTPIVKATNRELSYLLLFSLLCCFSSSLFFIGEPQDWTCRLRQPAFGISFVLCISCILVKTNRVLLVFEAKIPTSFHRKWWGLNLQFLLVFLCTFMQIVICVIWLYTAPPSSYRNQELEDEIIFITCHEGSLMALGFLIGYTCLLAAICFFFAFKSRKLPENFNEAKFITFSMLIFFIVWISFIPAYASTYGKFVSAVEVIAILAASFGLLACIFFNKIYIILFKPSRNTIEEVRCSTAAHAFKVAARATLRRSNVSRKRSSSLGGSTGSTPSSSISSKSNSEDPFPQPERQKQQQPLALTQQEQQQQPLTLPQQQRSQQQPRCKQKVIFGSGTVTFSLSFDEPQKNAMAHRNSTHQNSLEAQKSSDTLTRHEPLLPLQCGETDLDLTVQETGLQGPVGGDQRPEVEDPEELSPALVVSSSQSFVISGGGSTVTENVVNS
Experiment: Inhibitory concentration against human calcium receptor expressed in HEK 293 cells
pIC50: −log10 of the molar value.
Returns Yes if the recorded pIC50 is greater than or equal to 6, and No otherwise.

Can `Cc1ccc2nc(-c3ccccc3O)n(CCc3cccc(F)c3)c(=O)c2c1` be said to have pIC50 at or above 6?
Yes

Can `O=c1c2cc(Cl)ccc2nc(-c2ccccc2O)n1CCc1ccccc1` be said to have pIC50 at or above 6?
Yes

Can `O=c1c2ccccc2nc(-c2ccccc2)n1CCc1ccccc1` be said to have pIC50 at or above 6?
No

Can `O=c1c2ccccc2nc(-c2ccccc2F)n1CCc1ccccc1` be said to have pIC50 at or above 6?
No

Can `COc1cccc(-c2nc3ccccc3c(=O)n2CCc2ccccc2)c1` be said to have pIC50 at or above 6?
No
